Test: Solubility of the compound in 5% DMSO and 10% Solutol HS-15 saline solution
Format: physicochemical
Below, each entry is listed alongside its reported solubility.
Property Name: solubility (µg/mL)

>>> assay_value("C[C@H]1CCC/C=C/[C@@H]2C[C@H](O)C[C@H]2[C@H](OC(=O)/C=C/c2ccc(N(C)C)cc2)/C=C/C(=O)O1")
2500
>>> assay_value("C[C@H]1CCC/C=C/[C@@H]2C[C@H](O)C[C@H]2[C@H](O)/C=C/C(=O)O1 [BREFELDIN A]")
1000

----------
Assay: Volume of distribution at steady state in ICR mouse at 10 mg/kg, iv
Type: ADME, organism-based
Details: in vivo, read-out: Vdss
Property Name: Vd (L/kg)

>>> assay_value("C[C@H]1CCC/C=C/[C@@H]2C[C@H](O)C[C@H]2[C@H](OC(=O)/C=C/c2ccc(N(C)C)cc2)/C=C/C(=O)O1")
0.852
